assay: Experimental LogD measurement (1-octanol / PBS buffer partition, absorbance readout); assay type: physicochemical; settings: pH 7.4, room temperature, read-out: Log D7.4
Property Measured: logD

Exam item: Check the records and state logD for CN1CCOc2cc3nc4ccc(=[N+]5CCC5)cc-4oc3cc21
Marked response: 0.1

Exam item: Identify logD associated with the compound CC/[N+](C)=c1\ccc2nc3ccc(N4CCC4)cc3oc-2c1
Marked response: 0.5

Exam item: Tell me measured logD for c1cc2nc3ccc(=[N+]4CCC4)cc-3oc2cc1N1CCC1 please.
Marked response: 0.3

Exam item: Kindly indicate its recorded logD. Item: c1cc2nc3ccc(=[N+]4CCC4)cc-3oc2cc1N1CCCC1
Marked response: 0.5

---
Exam item: Give reported logD value for CCN1CCOc2cc3nc4ccc(=[N+]5CCC5)cc-4oc3cc21
Marked response: 0.5

Exam item: Quick one: give measured logD for CCN(CC)c1ccc2nc3ccc(=[N+]4CCC4)cc-3oc2c1
Marked response: 0.8
